- target-of-assay: Mitogen-activated protein kinase 1 (Homo sapiens)
- Sequence (P28482 whole entry): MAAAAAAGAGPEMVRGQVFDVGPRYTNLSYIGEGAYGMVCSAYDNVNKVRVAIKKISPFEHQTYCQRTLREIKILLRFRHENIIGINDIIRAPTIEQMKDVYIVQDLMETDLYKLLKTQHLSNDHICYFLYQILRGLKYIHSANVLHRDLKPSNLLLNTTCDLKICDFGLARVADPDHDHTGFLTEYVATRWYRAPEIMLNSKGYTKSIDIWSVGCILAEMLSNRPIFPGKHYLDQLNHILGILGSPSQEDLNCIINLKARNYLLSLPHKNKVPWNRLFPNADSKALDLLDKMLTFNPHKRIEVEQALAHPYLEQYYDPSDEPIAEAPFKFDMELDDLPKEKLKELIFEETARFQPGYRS
- measurement-notes: Inhibition of MAPK1
pIC50: −log10 of the molar value.
property-label: pIC50

Lab note: record pIC50 of CN(C)CCOc1ccc2c(c1)CCn1nc(-c3ccc(Oc4ccccc4)cc3)c(C(N)=O)c1N2 tested on Mitogen-activated protein kinase 1 (Homo sapiens).
< 5.00

###

- target-of-assay: Tyrosine-protein kinase ZAP-70 (Homo sapiens, UniProt P43403)
- Sequence (P43403 whole entry): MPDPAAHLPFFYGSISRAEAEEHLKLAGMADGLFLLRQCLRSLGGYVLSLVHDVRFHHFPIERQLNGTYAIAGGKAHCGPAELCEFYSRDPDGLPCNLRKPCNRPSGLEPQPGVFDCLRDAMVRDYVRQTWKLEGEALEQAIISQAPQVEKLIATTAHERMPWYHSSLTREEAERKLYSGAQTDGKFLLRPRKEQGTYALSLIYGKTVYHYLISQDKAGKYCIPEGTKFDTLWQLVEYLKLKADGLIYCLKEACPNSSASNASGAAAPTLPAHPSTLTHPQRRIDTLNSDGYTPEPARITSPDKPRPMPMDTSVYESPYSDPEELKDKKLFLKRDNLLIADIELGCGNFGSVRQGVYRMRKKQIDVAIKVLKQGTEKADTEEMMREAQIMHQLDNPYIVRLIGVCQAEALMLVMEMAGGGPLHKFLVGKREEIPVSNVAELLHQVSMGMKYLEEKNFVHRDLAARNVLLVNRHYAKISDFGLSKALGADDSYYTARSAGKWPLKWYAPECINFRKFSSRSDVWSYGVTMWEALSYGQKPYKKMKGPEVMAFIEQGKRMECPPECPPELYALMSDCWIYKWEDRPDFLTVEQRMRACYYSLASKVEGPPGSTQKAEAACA
pIC50: −log10 of the molar value.
property-label: pIC50

Supply measured pIC50 of CN(C)CCOc1ccc2c(c1)CCn1nc(-c3ccc(Oc4ccccc4)cc3)c(C(N)=O)c1N2 in your reply.
< 6.00

###

- target-of-assay: Calcium/calmodulin-dependent protein kinase type IV (Homo sapiens, UniProt Q16566)
- Sequence (Q16566 whole entry): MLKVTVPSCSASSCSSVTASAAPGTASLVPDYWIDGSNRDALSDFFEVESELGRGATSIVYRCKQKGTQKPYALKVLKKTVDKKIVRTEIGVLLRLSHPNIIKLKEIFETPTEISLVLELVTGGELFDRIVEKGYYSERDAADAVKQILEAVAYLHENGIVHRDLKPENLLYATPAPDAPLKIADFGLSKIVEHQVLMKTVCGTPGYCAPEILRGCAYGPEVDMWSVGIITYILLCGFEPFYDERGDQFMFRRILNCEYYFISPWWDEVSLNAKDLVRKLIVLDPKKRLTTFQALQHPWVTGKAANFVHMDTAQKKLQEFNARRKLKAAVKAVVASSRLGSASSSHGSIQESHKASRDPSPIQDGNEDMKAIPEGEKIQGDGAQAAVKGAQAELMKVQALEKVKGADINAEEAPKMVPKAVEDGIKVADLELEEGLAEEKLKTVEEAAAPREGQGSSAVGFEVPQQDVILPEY
- measurement-notes: Inhibition of CamK4
property-label: IC50

Give the value of IC50 reported for the following: CN(C)CCOc1ccc2c(c1)CCn1nc(-c3ccc(Oc4ccccc4)cc3)c(C(N)=O)c1N2
> 10 µM
